Test system: UO-31 renal
Assay Details: NCI tumour cell line growth inhibition, 48 h
List of TGI values.

>  <Compound>
Cc1cccc(-n2cnc3cc(C(=O)N4CCCCC4)ccc32)c1

>  <Unit Symbol>
µM

>  <Operator Symbol>
>

>  <TGI>
100

$$$$
>  <Compound>
COc1ccc(N(CN2C(=O)CCC2OC)C(C)=O)cc1 (configuration not stated)

>  <Unit Symbol>
µM

>  <Operator Symbol>
>

>  <TGI>
100

$$$$
>  <Compound>
COC(=O)[C@]12CC[C@@H](C)[C@H](C)[C@@H]1C1=CC[C@@H]3[C@@]4(C)C[C@@H](OC(C)=O)[C@H](O)[C@@](C)(CO)[C@@H]4[C@H](O)C[C@@]3(C)[C@]1(C)CC2

>  <Unit Symbol>
µM

>  <Operator Symbol>
=

>  <TGI>
17.1

$$$$
>  <Compound>
COC(=O)N[C@H]1C=C[C@@H]2/C=C(C)/C=C/[C@@H](C)[C@H]([C@H](C)[C@H](O)[C@@H](C)NC(C)=O)OC(=O)/C=C/C=C(C)\C=C\[C@]2(C)C1

>  <Unit Symbol>
µM

>  <Operator Symbol>
=

>  <TGI>
28.7

$$$$
>  <Compound>
CCOC(=O)c1cc2c([nH]1)c(OC(C)=O)cc1c2ccn1Cc1ccccc1

>  <Unit Symbol>
µM

>  <Operator Symbol>
>

>  <TGI>
100

$$$$
>  <Compound>
CN(C)[C@@H]1C(=O)C(C(=O)NCN2CCN(C(=N)N=C(N)N)CC2)=C(O)[C@@]2(O)C(=O)C3=C(O)c4c(O)cccc4[C@@](C)(O)[C@H]3C[C@@H]12

>  <Unit Symbol>
µM

>  <Operator Symbol>
=

>  <TGI>
0.982

$$$$
>  <Compound>
O=S(=O)(Nc1nc2ccccc2n1S(=O)(=O)c1ccccc1)c1ccccc1

>  <Unit Symbol>
µM

>  <Operator Symbol>
>

>  <TGI>
100

$$$$

----------
Tested on: DLD-1 colon
Assay Details: NCI tumour cell line growth inhibition, 48 h
TGI overview

>  <Molecule>
CN1C(=O)N(C)C2(O)c3ccccc3C(=O)C12O (stereo unspecified)

>  <Target Entity>
DLD-1 colon

>  <TGI>
> 100 µM

$$$$
>  <Molecule>
Oc1ccc2c(c1)OCC1(O)Cc3cc(O)c(O)cc3C21 (stereo unspecified)

>  <Target Entity>
DLD-1 colon

>  <TGI>
33.9 µM

$$$$
>  <Molecule>
CC(=O)/C(=C\c1ccccc1)C(=O)Nc1ccccc1

>  <Target Entity>
DLD-1 colon

>  <TGI>
> 100 µM

$$$$
>  <Molecule>
COC(=O)[C@@H]1c2[nH]c3ccccc3c2C[C@@H]2c3ccccc3NC(=O)[C@@H]21

>  <Target Entity>
DLD-1 colon

>  <TGI>
> 100 µM

$$$$
>  <Molecule>
COc1ccc(CNc2cnc3ccc(N)cc3n2)cc1OC

>  <Target Entity>
DLD-1 colon

>  <TGI>
> 100 µM

$$$$
>  <Molecule>
CCCCC1(C2c3ccccc3Oc3ccccc32)C(=O)N(c2ccccc2)N(c2ccccc2)C1=O

>  <Target Entity>
DLD-1 colon

>  <TGI>
> 100 µM

$$$$

----------
Test system: NCI-H522 lung
Assay Details: NCI tumour cell line growth inhibition, 48 h

>  <Compound>
COC(=O)C(=O)C(CC(=O)Nc1c(C)cccc1C)C(=O)OC (centres undefined)

>  <Unit Symbol>
µM

>  <Operator Symbol>
>

>  <TGI>
100

$$$$
>  <Compound>
CCC(C)CN=C(N)c1ccc(N2CCN(c3ccc(C(N)=NCC(C)CC)cc3)CC2)cc1 (centres undefined)

>  <Unit Symbol>
µM

>  <Operator Symbol>
=

>  <TGI>
27.2

$$$$
>  <Compound>
CCCCCCCCn1ccc2cc(NC(=O)Cn3cc(CN4CCN(CC)CC4)nn3)ccc21

>  <Unit Symbol>
µM

>  <Operator Symbol>
=

>  <TGI>
3.84

$$$$
>  <Compound>
O=S(=O)(Nc1nc2ccccc2n1S(=O)(=O)c1ccccc1)c1ccccc1

>  <Unit Symbol>
µM

>  <Operator Symbol>
>

>  <TGI>
100

$$$$
>  <Compound>
CCCCCCCCCCCCCCCC(=O)Nc1ccn(C2CC(OP(=O)(O)OCC3OC(n4cc(F)c(=O)[nH]c4=O)CC3OC(C)=O)C(CO)O2)c(=O)n1 (centres undefined)

>  <Unit Symbol>
µM

>  <Operator Symbol>
=

>  <TGI>
37.7

$$$$
>  <Compound>
c1ccc2c(c1)N[C@@H]1c3[nH]c4ccccc4c3CC[C@H]21

>  <Unit Symbol>
µM

>  <Operator Symbol>
=

>  <TGI>
24.2

$$$$
>  <Compound>
O=Cc1cn(Cc2ccccc2)c2ccccc12

>  <Unit Symbol>
µM

>  <Operator Symbol>
>

>  <TGI>
100

$$$$
>  <Compound>
c1ccc(P2c3ccccc3Nc3ccccc32)cc1

>  <Unit Symbol>
µM

>  <Operator Symbol>
>

>  <TGI>
100

$$$$
>  <Compound>
CCN(CC)CCn1ncc2c(N)ncnc21

>  <Unit Symbol>
µM

>  <Operator Symbol>
>

>  <TGI>
100

$$$$
>  <Compound>
[N-]=[N+]=Nc1ncnc2c1sc(=S)n2-c1ccccc1

>  <Unit Symbol>
µM

>  <Operator Symbol>
>

>  <TGI>
100

$$$$
>  <Compound>
CN(C)CCNS(=O)(=O)N(C)C

>  <Unit Symbol>
µM

>  <Operator Symbol>
>

>  <TGI>
100

$$$$
>  <Compound>
CCCCCCC1=NOC(C(c2cc[nH]c2)N(C)[C@H](C(=O)OC)C(C)C)C1 (some centres undefined)

>  <Unit Symbol>
µM

>  <Operator Symbol>
=

>  <TGI>
33.9

$$$$
>  <Compound>
COC(=O)N[C@H]1C=C[C@@H]2/C=C(C)/C=C/[C@@H](C)[C@H]([C@H](C)[C@H](O)[C@@H](C)NC(C)=O)OC(=O)/C=C/C=C(C)\C=C\[C@]2(C)C1

>  <Unit Symbol>
µM

>  <Operator Symbol>
=

>  <TGI>
19.2

$$$$
>  <Compound>
Cn1cc(-c2csc(-c3c[nH]c4ccccc34)n2)c2cccnc21

>  <Unit Symbol>
µM

>  <Operator Symbol>
=

>  <TGI>
2.01

$$$$
>  <Compound>
COc1ccc(C(O)c2cc3c(N)c(C(=O)Nc4ccccc4)sc3nc2C)cc1 (centres undefined)

>  <Unit Symbol>
µM

>  <Operator Symbol>
=

>  <TGI>
2.57

$$$$
>  <Compound>
CCCCCCCCCCCCCCCC(=O)Nc1ccn([C@@H]2O[C@H](CO)[C@@H](O)[C@@H]2C#N)c(=O)n1

>  <Unit Symbol>
µM

>  <Operator Symbol>
=

>  <TGI>
33.3

$$$$
>  <Compound>
N#CC(NCCc1ccccc1)c1ccc(C(C#N)NCCc2ccccc2)cc1 (centres undefined)

>  <Unit Symbol>
µM

>  <Operator Symbol>
>

>  <TGI>
100

$$$$
>  <Compound>
COC(=O)C1(CCC(=O)N(C)c2ccccc2)NNC2C(=O)N(c3ccccc3)C(=O)C21 (centres undefined)

>  <Unit Symbol>
µM

>  <Operator Symbol>
>

>  <TGI>
10

$$$$
>  <Compound>
O=C([CH-]C(=O)C(F)(F)F)c1ccccc1.O=C([CH-]C(=O)C(F)(F)F)c1ccccc1.[O]=[U+2]=[O]

>  <Unit Symbol>
µM

>  <Operator Symbol>
>

>  <TGI>
100

$$$$
>  <Compound>
CCOC(=O)c1cc(C)n(CN(CCO)Cn2nc(C(=O)OCC)cc2C)n1

>  <Unit Symbol>
µM

>  <Operator Symbol>
=

>  <TGI>
52.1

$$$$
>  <Compound>
CCNC(=O)N1CCc2c(Cl)c3c(c(OC)c2[C@@H]1[C@H]1OCc2c1ccc(OC)c2OC)OCCO3

>  <Unit Symbol>
µM

>  <Operator Symbol>
=

>  <TGI>
6.66

$$$$
>  <Compound>
N/N=c1\c2ccccc2c2ccc3c4ccccc4/c(=N\N)c3c12

>  <Unit Symbol>
µM

>  <Operator Symbol>
>

>  <TGI>
100

$$$$
>  <Compound>
O=C1c2ccccc2CC12CCC1(CC2)OCCO1

>  <Unit Symbol>
µM

>  <Operator Symbol>
>

>  <TGI>
100

$$$$
>  <Compound>
CCCC(=O)Nc1ccc(O)c2c1C1CCCCCC21 (centres undefined)

>  <Unit Symbol>
µM

>  <Operator Symbol>
>

>  <TGI>
100

$$$$
>  <Compound>
CCN(CC)c1ccc2cc(-c3nc4ccccc4n3C)c(=O)oc2c1

>  <Unit Symbol>
µM

>  <Operator Symbol>
=

>  <TGI>
0.661

$$$$
>  <Compound>
CCOC(=O)C(C(=O)OCC)C1C=CCC2c3ccccc3COCC21 (centres undefined)

>  <Unit Symbol>
µM

>  <Operator Symbol>
=

>  <TGI>
71.2

$$$$
>  <Compound>
CCSC1=CC(Cc2ccc(OC)cc2)N(C(=O)OC)C1 (centres undefined)

>  <Unit Symbol>
µM

>  <Operator Symbol>
>

>  <TGI>
100

$$$$
>  <Compound>
CN1CCN(Cc2nc3cccc4c3c([n+]2[O-])-c2ccccc2-4)CC1

>  <Unit Symbol>
µM

>  <Operator Symbol>
>

>  <TGI>
48.5

$$$$

From: PubChem BioAssay (NCI)
